Molecular target: DNA gyrase (Escherichia coli, UniProt P0AES4+P0AES6)
Test: Inhibitory concentration in supercoiling inhibition Escherichia coli DNA gyrase assay
Type: protein-complex assay
Conditions: read-out: I50 (converted)
Hi! Could you tag entries with IC50 below 20 µM as true (1), and those at or above as false (0)? Much appreciated.

- mol-smiles: "CN1CCN(c2c(F)cc3c(=O)c(C(=O)O)cn(CCF)c3c2F)CC1"
  qualitative-label: "true (1)"
- mol-smiles: "CNn1cc(C(=O)O)c(=O)c2cc(F)c(N3CCN(C)CC3)cc21"
  qualitative-label: "true (1)"
- mol-smiles: "CCn1nc(C(=O)O)c(=O)c2cc3c(cc21)OCO3"
  qualitative-label: "false (0)"
- mol-smiles: "CCn1cc(C(=O)O)c(=O)c2cnc(N3CCCC3)nc21"
  qualitative-label: "false (0)"
- mol-smiles: "CCn1cc(C(=O)O)c(=O)c2cc(F)c(N3CCCC3)cc21"
  qualitative-label: "false (0)"
- mol-smiles: "CCn1cc(C(=O)O)c(=O)c2cc(F)c(N3CCCC3)nc21"
  qualitative-label: "true (1)"
- mol-smiles: "CCn1cc(C(=O)O)c(=O)c2cc3c(cc21)OCO3"
  qualitative-label: "false (0)"
- mol-smiles: "CCn1cc(C(=O)O)c(=O)c2cc(F)c(N3CCNCC3)nc21"
  qualitative-label: "false (0)"
- mol-smiles: "CCn1cc(C(=O)O)c(=O)c2cc(F)c(N3CCSC3)nc21"
  qualitative-label: "false (0)"

----------
Target or system Staphylococcus aureus; recorded quantity log10 MIC.
reported-endpoint: log10 MIC (log10 of the value in mg/L)

- mol-smiles: "CCn1cc(C(=O)O)c(=O)c2ccc(/C=N/O)nc21"
  log10 MIC: 1.70
- mol-smiles: "CCn1cc(C(=O)O)c(=O)c2cc(F)c(N3CCCC3)nc21"
  log10 MIC: -0.70
- mol-smiles: "CCn1cc(C(=O)O)c(=O)c2c(N)nc(N3CCNCC3)nc21"
  log10 MIC: 1.70
- mol-smiles: "CCn1cc(C(=O)O)c(=O)c2c(N)nc(N3CCCC3)nc21"
  log10 MIC: 2.00
- mol-smiles: "COn1cc(C(=O)O)c(=O)c2cc3c(cc21)OCO3"
  log10 MIC: 0.80
- mol-smiles: "CCn1cc(C(=O)O)c(=O)c2cc(F)c(N3CCC(C(N)=O)CC3)cc21"
  log10 MIC: 0.49
- mol-smiles: "CCn1cc(C(=O)O)c(=O)c2cc(F)c(N3CCN(CC#N)CC3)cc21"
  log10 MIC: 0.20
- mol-smiles: "CCn1cc(C(=O)O)c(=O)c2cc(F)c(N3CCN(C)CC3)c(F)c21"
  log10 MIC: -0.40
- mol-smiles: "CCn1cc(C(=O)O)c(=O)c2cc(F)c(N3CCSC3)nc21"
  log10 MIC: -1.30
- mol-smiles: "CCn1cc(C(=O)O)c(=O)c2cc(F)c(N3CCSCC3)nc21"
  log10 MIC: -0.70

----------
A set of molecules tested on Klebsiella pneumoniae, with measured MIC:
reported-endpoint: MIC (µg/mL)

- mol-smiles: "CCn1cc(C(=O)O)c(=O)c2cc(F)c(N3CCN(CC#N)CC3)cc21"
  reported-endpoint: "MIC"
  reading-qualifier: "="
  recorded-measurement: 0.8
- mol-smiles: "CCn1cc(C(=O)O)c(=O)cc1C"
  reported-endpoint: "MIC"
  reading-qualifier: ">"
  recorded-measurement: 100
- mol-smiles: "CCOC(=O)N1CCN(c2nc3c(cc2F)c(=O)c(C(=O)O)cn3CC)CC1"
  reported-endpoint: "MIC"
  reading-qualifier: "="
  recorded-measurement: 50
- mol-smiles: "CCn1cc(C(=O)O)c(=O)cc1/C=C/c1ccsc1"
  reported-endpoint: "MIC"
  reading-qualifier: ">"
  recorded-measurement: 100
- mol-smiles: "CCn1cc(C(=O)O)c(=O)c2cc(F)c(NC)cc21"
  reported-endpoint: "MIC"
  reading-qualifier: "="
  recorded-measurement: 6.3
- mol-smiles: "CCn1cc(C(=O)O)c(=O)c2cc(F)c(N3CCCC3)cc21"
  reported-endpoint: "MIC"
  reading-qualifier: ">"
  recorded-measurement: 100
- mol-smiles: "CNn1cc(C(=O)O)c(=O)c2cc(F)c(N3CCN(C)CC3)cc21"
  reported-endpoint: "MIC"
  reading-qualifier: "="
  recorded-measurement: 0.2
- mol-smiles: "CCn1cc(C(=O)O)c(=O)c2cc(N)c(C)nc21"
  reported-endpoint: "MIC"
  reading-qualifier: ">"
  recorded-measurement: 100
- mol-smiles: "CCn1cc(C(=O)O)c(=O)c2cc(F)c(N3CCC(C(F)(F)F)CC3)cc21"
  reported-endpoint: "MIC"
  reading-qualifier: ">"
  recorded-measurement: 100
- mol-smiles: "COn1cc(C(=O)O)c(=O)c2cc3c(cc21)OCO3"
  reported-endpoint: "MIC"
  reading-qualifier: "="
  recorded-measurement: 0.2
- mol-smiles: "CCn1cc(C(=O)O)c(=O)c2c(N)nc(N3CCCC3)nc21"
  reported-endpoint: "MIC"
  reading-qualifier: ">"
  recorded-measurement: 100
- mol-smiles: "CCn1cc(C(=O)O)c(=O)c2cc(F)c(N3CCNCC3)c(F)c21"
  reported-endpoint: "MIC"
  reading-qualifier: "="
  recorded-measurement: 0.1

meta.source: ChEMBL document CHEMBL1123417
